The values you see were collected from patent US20140178332A1.

Target: T1, recombinant purified human IL-12 p70 (human, UniProt P29459 23-219)
T1 sequence 1: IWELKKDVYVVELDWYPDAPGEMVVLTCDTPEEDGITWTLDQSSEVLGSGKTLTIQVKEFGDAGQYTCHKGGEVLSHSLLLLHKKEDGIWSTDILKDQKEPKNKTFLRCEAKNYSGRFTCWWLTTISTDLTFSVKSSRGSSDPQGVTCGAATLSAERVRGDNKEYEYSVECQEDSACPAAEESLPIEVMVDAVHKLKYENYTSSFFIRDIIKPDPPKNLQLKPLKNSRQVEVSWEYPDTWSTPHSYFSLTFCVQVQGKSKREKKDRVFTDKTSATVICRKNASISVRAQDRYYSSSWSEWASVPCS
T1 sequence 2: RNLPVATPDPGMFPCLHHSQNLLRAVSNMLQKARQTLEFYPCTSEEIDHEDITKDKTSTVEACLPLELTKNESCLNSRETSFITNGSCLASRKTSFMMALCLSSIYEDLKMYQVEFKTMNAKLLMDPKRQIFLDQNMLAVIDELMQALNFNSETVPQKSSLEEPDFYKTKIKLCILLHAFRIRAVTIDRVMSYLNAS
Test: cell-based or functional assay
Av. IC50 (nM) huIL-12, PHA blast assay values for the binders below.
Your answer should be a plain number; it is taken to be in nM.

anti-IL-12p40 humanized antibody 1A6.9 (antibody, human IgG1, kappa, L234A L235A, V domains shown, Back-mutated CDR-grafted antibody; COS cells) VH: EVTLRESGPALVKPTQTLTLTCTFSGFSLSTSGMGVSWIRQPPGKALEWLAHIWWDGDNYYNPSLKSRLTISKDTSKNQVVLTMTNMDPVDTATYYCARRTRVNYAMDYWGQGTTVTVSS VL: SVVMTQSPDSLAVSLGERATINCKASQSVSNDVAWFQQKPGQPPKLLIYYASNRYTGVPDRFSGSGYGTDFTLTISSLQAEDVAVYYCQQDYNSPWTFGGGTKVEIKR ... 0.15
anti-IL-12p40 humanized antibody 1D4.6 (antibody, human IgG1, kappa, L234A L235A, V domains shown, COS cells) VH: EVTLRESGPALVKPTQTLTLTCTFSGFSLSKSVMGVSWIRQPPGKALEWLAHIYWDDDKYYNPSLKSRLTISKDTSKNQVVLTMTNMDPVDTATYYCTRRGIRSAMDYWGQGTTVTVSS VL: DVVMTQSPDSLAVSLGERATINCKASQSVSNDVAWYQQKPGQPPKLLIYYASNRYTGVPDRFSGSGYGTDFTLTISSLQAEDVAVYYCQQDYNSPWTFGGGTKVEIKR ... 0.15
anti-IL-12p40 humanized antibody 8E1.3 (antibody, human IgG1, kappa, L234A L235A, V domains shown, Back-mutated CDR-grafted antibody; COS cells) VH: EVKLVESGGGLVQPGGSLRLSCAASGFTFSDYGMVWVRQAPGKGLEWVASISSGSSNIYYADTVKGRFTISRDDSKNTLYLQMNSLKTEDTAVYYCARNPYWGQGTTVTVSS VL: DIVMTQSPSSLSASVGDRVTITCKASQNVGTNVAWYQQKPEKAPKSLIYSASHRYSGVPSRFSGSGSGTDFTLTISSLQPEDFATYYCQQYNSYPLTFGGGTKVEIKR ... 10

# context switch: different binder, same Av. IC50 (nM) huIL-12, PHA blast assay
q: What value of Av. IC50 (nM) huIL-12, PHA blast assay has been recorded for this entry: anti-IL-12p40 humanized antibody 1D4.8 (antibody, human IgG1, kappa, L234A L235A, V domains shown, Back-mutated CDR-grafted antibody; COS cells) VH: EVTLRESGPALVKPTQTLTLTCTFSGFSLRKSVMGVSWIRQPPGKALEWLAHIYWDDDKYYNPSLKSRLTISKDTSKNQVVLTMTNMDPVDTATYYCTRRGIRSAMDYWGQGTTVTVSS VL: DIVMTQSPDSLAVSLGERATINCKASQSVSNDVAWYQQKPGQPPKLLIYYASNRYTGVPDRFSGSGSGTDFTLTISSLQAEDVAVYYCQQDYNSPWTFGGGTKVEIKR
a: 0.095
